# Tested on: A. fumigatus mutant strain ΔsidA/ΔftrA
# assay_name: Siderophore utilization growth assay
# Format: cell-based, Aspergillus fumigatus
# test_conditions: 37 °C, 48 h incubation
# Source text: For siderophore utilization growth assays, A. fumigatus mutant strain ΔsidA/ΔftrA [7], which can grow only in the presence of externally added iron-siderophores or at high iron concentrations, was used. The fungal strain was inoculated in iron-deficient culture as described above. To investigate the ability or inability of A. fumigatus to take up and utilize [Fe]siderophores as iron source, a growth assay with the A. fumigatus mutant strain ΔsidA/ΔftrA was employed. […]
readout_kind: concentration of [Fe]siderophore at which growth was supported (µM)
Entry rule: numbers only, all in µM.

[
  {
    "molecule": "CC(=O)NC1CCCN([O-])C(=O)C=C(C)CCOC(=O)C(NC(C)=O)CCCN([O-])C(=O)C=C(C)CCOC(=O)C(N)CCCN([O-])C(=O)C=C(C)CCOC1=O.[Fe+3] (stereo not shown) [[Fe]DAFC, diacetyl[Fe]FSC]",
    "tested_target": "A. fumigatus mutant strain ΔsidA/ΔftrA",
    "result": 0.1
  },
  {
    "molecule": "CC(=O)NC1CCCN([O-])C(=O)C=C(C)CCOC(=O)C(NC(=O)CN)CCCN([O-])C(=O)C=C(C)CCOC(=O)C(NC(=O)CN)CCCN([O-])C(=O)C=C(C)CCOC1=O.[Fe+3] (stereo not shown) [[Fe]MAFC(gly)2, diglycyl[Fe]MAFC]",
    "tested_target": "A. fumigatus mutant strain ΔsidA/ΔftrA",
    "result": 1
  },
  {
    "molecule": "CC(=O)NC1CCCN([O-])C(=O)C=C(C)CCOC(=O)C(NC(=O)CN)CCCN([O-])C(=O)C=C(C)CCOC(=O)C(NC(C)=O)CCCN([O-])C(=O)C=C(C)CCOC1=O.[Fe+3] (stereo not shown) [[Fe]DAFC(gly), glycyl[Fe]DAFC]",
    "tested_target": "A. fumigatus mutant strain ΔsidA/ΔftrA",
    "result": 1
  }
]

Could you now look at the following molecule, please?
Query: concentration of [Fe]siderophore at which growth was supported; subject: CC(=O)NC1CCCN([O-])C(=O)C=C(C)CCOC(=O)C(NC(=O)CCC(=O)O)CCCN([O-])C(=O)C=C(C)CCOC(=O)C(NC(=O)CCC(=O)O)CCCN([O-])C(=O)C=C(C)CCOC1=O.[Fe+3] (stereo not shown) [[Fe]MAFC(suc)2, disuccinyl[Fe]MAFC]
1

###

# assay_name: Stability in fresh human serum (RP-HPLC, %RCP)
# test_conditions: 37 °C, 30 min, n = 3
readout_kind: Stability in serum (%)
Return type: number; implicit unit %.

# count of solved cases: 3
[
  {
    "compound": "CCCC(=O)NC1CCCN(O)C(=O)C=C(C)CCOC(=O)C(NC(C)=O)CCCN(O)C(=O)C=C(C)CCOC(=O)C(NC(C)=O)CCCN(O)C(=O)C=C(C)CCOC1=O (stereo not shown) (68Ga complex, metal not drawn)",
    "readout_kind": "Stability in serum (%)",
    "scale_unit": "%",
    "result": 99.58
  },
  {
    "compound": "CC1=CC(=O)N(O)CCCC(NC(=O)CCC(=O)O)C(=O)OCCC(C)=CC(=O)N(O)CCCC(NC(=O)CCC(=O)O)C(=O)OCCC(C)=CC(=O)N(O)CCCC(NC(=O)CCC(=O)O)C(=O)OCC1 (stereo not shown) (68Ga complex, metal not drawn) [FSC(suc)3, trisuccinyl(FSC)]",
    "readout_kind": "Stability in serum (%)",
    "scale_unit": "%",
    "result": 99.59
  },
  {
    "compound": "CC(=O)NC1CCCN(O)C(=O)C=C(C)CCOC(=O)C(NC(C)=O)CCCN(O)C(=O)C=C(C)CCOC(=O)C(NC(C)=O)CCCN(O)C(=O)C=C(C)CCOC1=O (stereo not shown) (68Ga complex, metal not drawn)",
    "readout_kind": "Stability in serum (%)",
    "scale_unit": "%",
    "result": 99.48
  }
]

I have this compound here, CCC(=O)NC1CCCN(O)C(=O)C=C(C)CCOC(=O)C(NC(=O)CC)CCCN(O)C(=O)C=C(C)CCOC(=O)C(NC(=O)CC)CCCN(O)C(=O)C=C(C)CCOC1=O (stereo not shown) (68Ga complex, metal not drawn) , and I need its recorded Stability in serum (%).
99.67
